hERG current change (%, negative = inhibition) at 10uM values for the compounds below.
Target: human ether-à-go-go-related gene (hERG) potassium channel (human);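 further: peak tail current of the secondary pulse compared with the same well before compound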
Assay: primary screen, population patch clamp on CHO cells stably expressing hERG; higher = less effect of the substance
Among all 310,000 compounds or so, about 14,000 (4.5%) showed an effect of 50% or more. The effect is printed as a negative number. This excerpt belongs to a sample that is enriched for strong results.
endpoint_name: hERG current change (%, negative = inhibition) at 10uM (%)

compound	assay_system	unit_tag	observed
Cc1ccc(Nc2nnc(SCC(=O)Nc3ncc(S(=O)(=O)c4ccc([N+](=O)[O-])cc4)s3)s2)cc1	human ether-à-go-go-related gene (hERG) potassium channel (human)	%	-14.5
CCCCn1c(N)c(N(CCOC)C(=O)c2nn(CC)c(=O)c3ccccc23)c(=O)[nH]c1=O	human ether-à-go-go-related gene (hERG) potassium channel (human)	%	6.82
CCCCS(=O)(=O)Nc1ccc(C(=O)NCC2CCCO2)cc1 (stereo not shown)	human ether-à-go-go-related gene (hERG) potassium channel (human)	%	-4.69
COc1ccc(CCNC(=O)CCc2nc3sc4c(c3c(=O)[nH]2)CCCC4)cc1	human ether-à-go-go-related gene (hERG) potassium channel (human)	%	9.78
CCCOc1ccccc1C(=O)N(Cc1cccc(Br)c1)C1CCS(=O)(=O)C1 (stereo not shown)	human ether-à-go-go-related gene (hERG) potassium channel (human)	%	-35.4
CC(C)OC(=O)Cn1nnc(-c2ccccc2)n1	human ether-à-go-go-related gene (hERG) potassium channel (human)	%	0.0206
Cc1ccc(C)c(NC(=O)CCNS(=O)(=O)c2ccc3[nH]c(=O)oc3c2)c1	human ether-à-go-go-related gene (hERG) potassium channel (human)	%	11.4
CCCCCn1nc(C(=O)N(CCOC)c2c(N)n(CCCC)c(=O)[nH]c2=O)c2ccccc2c1=O	human ether-à-go-go-related gene (hERG) potassium channel (human)	%	-3.44
CC(C)(C)NC(=S)N/N=C/c1cc(Br)c(O)c(Br)c1	human ether-à-go-go-related gene (hERG) potassium channel (human)	%	29.8
CCCCN(C(=O)c1ccc([N+](=O)[O-])s1)c1c(N)n(CCCC)c(=O)[nH]c1=O	human ether-à-go-go-related gene (hERG) potassium channel (human)	%	-12.9
CCCCCCn1nc(C(=O)N(CC(C)C)c2c(N)n(CCCC)c(=O)[nH]c2=O)c2ccccc2c1=O	human ether-à-go-go-related gene (hERG) potassium channel (human)	%	-51.9
NS(=O)(=O)c1ccc(NC(=O)CSc2nnc(-c3ccc(O)cc3)o2)cc1	human ether-à-go-go-related gene (hERG) potassium channel (human)	%	25.1
CCCCn1c(N)c(N(CCC(C)C)C(=O)c2ccc([N+](=O)[O-])s2)c(=O)[nH]c1=O	human ether-à-go-go-related gene (hERG) potassium channel (human)	%	-51.1
CCOc1ccc(NC(=O)Nc2ccon2)cc1	human ether-à-go-go-related gene (hERG) potassium channel (human)	%	16.7
CCCCn1nc(C(=O)N(CCOC)c2c(N)n(CCCC)c(=O)[nH]c2=O)c2ccccc2c1=O	human ether-à-go-go-related gene (hERG) potassium channel (human)	%	6.16
COc1cccc(CNC(=O)COC(=O)c2cc(Br)c(Br)s2)c1	human ether-à-go-go-related gene (hERG) potassium channel (human)	%	14.8
CC(/C=C1\SC(=S)N(CCC(=O)Nc2cccc(C(=O)O)c2)C1=O)=C\c1ccccc1	human ether-à-go-go-related gene (hERG) potassium channel (human)	%	10.9
COc1ccc(C(=O)CC(=O)C(=O)Nc2ccc(Cl)cc2)cc1	human ether-à-go-go-related gene (hERG) potassium channel (human)	%	7.74
CCCCCn1nc(C(=O)N(CC(C)C)c2c(N)n(CCCC)c(=O)[nH]c2=O)c2ccccc2c1=O	human ether-à-go-go-related gene (hERG) potassium channel (human)	%	-76.6

----------
Molecular target: human ether-à-go-go-related gene (hERG) potassium channel (human);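 further: peak tail current of the secondary pulse compared with the same well before compound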
Assay: primary screen, population patch clamp on CHO cells stably expressing hERG; higher = less effect of the substance
Screen size: about 310,000 compounds; about 14,000 (4.5%) showed an effect of 50% or more. The effect is printed as a negative number. The sample as a whole holds a higher share of strong results than the screen did.
endpoint_name: hERG current change (%, negative = inhibition) at 10uM

molecule	observed
CCOCCOC(=O)C1=C(C)NC(=O)NC1c1cc2c(cc1Br)OCO2 (stereo not drawn)	-30.5%
Cc1ccc(NC(=O)Cn2c(CCC(=O)O)ccc2-c2cccs2)cc1	-2.61%
O=C(c1ccco1)N1CCC(c2nc(-c3ccccc3Cl)no2)CC1	-11.5%
CCN(CC)CCNC(=O)C(C)c1nn(CC)c(=O)c2ccccc12.Cl (stereo not drawn)	7.49%
Cc1cc(C(=O)CSc2nc(N)cc(=O)[nH]2)c(C)n1CCc1ccc(F)cc1	1.93%
O=C(C1CCN(c2ncnc3c2sc2cccc(F)c23)CC1)N1CCCC1	-19.7%
O=C(C1CCN(c2ncnc3c2sc2cccc(F)c23)CC1)N1CCOCC1	-27.8%
Cc1cc(=O)[nH]c(SCCCOc2ccccc2Cl)n1	3.82%
COc1ccc(-c2oc(=O)c3cc(OC)c(OC)cc3c2C(F)(F)F)cc1	23.7%
COc1cccc(NC(=O)Cc2ccc3ccccc3c2)c1	-7.16%
CCN(CC)CCN1C(=O)Cn2c(C)c(C)c3cccc1c32.Cl	-52.4%
COc1ccc(-c2noc(N3CCC(C(=O)NCCCN4CC(C)CC(C)C4)CC3)n2)cc1 (stereo not drawn)	-18.1%
CCN(CC)CCNC(=O)Cn1nc(-c2ccccc2)c2ccccc2c1=O	-31%
CCOc1ccccc1CNC(=O)C1CCC(=O)N1C(C)C (stereo not drawn)	1.56%
COc1ccccc1C(=O)NC(CCSC)C(=O)N1CCC(Cc2ccccc2)CC1 (stereo not drawn)	-23.1%
CCN(CC)CCCNC(=O)C1CCN(C(=O)c2cc3sccc3n2Cc2ccc(F)cc2)CC1	-2.11%
COc1ccccc1C(=O)NC(CCSC)C(=O)N1CCN(C/C=C/c2ccccc2)CC1 (stereo not drawn)	-109%
N#Cc1ccc2c(c1)nnn2-c1ccccc1	1.85%
Cc1ccc(-c2cc(C(=O)N3CCOCC3)c3cc(C)ccc3n2)cc1	-4.82%
COc1ccccc1C(=O)Nc1ccnn1C1CCN(C/C=C/c2ccc(F)cc2)CC1	-76.6%
O=C(Nc1ccc(F)cc1F)C1CCN(c2ncnc3c2sc2cccc(F)c23)CC1	3.98%
Cc1cc(OCC(=O)NCc2ccccn2)c2c(C)cc(=O)oc2c1	-7.15%
COCCCn1c(=O)c2sccc2n2c(CCCC(=O)N(C)Cc3ccco3)nnc12	-22.8%
O=C(OCC(=O)N1CCCC1=O)C1CCN(S(=O)(=O)c2ccc(Cl)c(C(F)(F)F)c2)CC1	5.31%
Cc1ccc(Oc2ncccc2/C=N/OCc2ccc(Cl)cc2Cl)cc1	14.7%
CCN(CC)CCNC(=O)c1ccc(NC(=O)C2CCN(c3ncnc4sc(C)c(C)c34)CC2)cc1	-29.8%
CCOC(=O)N1CCN(C(=O)COc2ccc(S(=O)(=O)NC3CCCCC3)cc2C)CC1	-16.9%
CCOC(=O)N1CCN(C(=O)C2CCN(c3ncnc4c3sc3cccc(F)c34)CC2)CC1	-59.9%
Clc1ccc(CSc2ccc(-c3ccccn3)nn2)cc1	-2.04%
Cc1ccc[n+](Cc2ccc([N+](=O)[O-])cc2)c1.[Br-]	27.1%
Cc1ccc(NC(=O)Cn2c(CCC(=O)O)ccc2-c2cccs2)cc1Cl	-75.3%
CCCC(=O)NC(=S)Nc1cccc(NC(=O)c2ccc(Cl)cc2Cl)c1	11.6%
COCCC(=O)N1CCC(n2nccc2NC(=O)c2ccccc2C)CC1	12.6%
COc1ccc(-c2nc3ccc(N4CCN(C)CC4)cc3c(=O)[nH]2)cc1	8.45%
CCN(CC)CCN1C(=O)C2C3c4ccccc4C(c4ccccc43)C2C1=O (stereo not drawn)	-2.51%
O=C(NCCN1CCOCC1)C1CCN(c2ncnc3c2sc2cccc(F)c23)CC1	-25.6%
COc1ccc(N(C(=O)c2snc(C(N)=O)c2N)C(C(=O)NC2CCCC2)c2ccc(OC)c(OC)c2)cc1 (stereo not drawn)	10.9%
Cc1ccc(NC(=O)C(C)OC(=O)/C=C/c2ccccc2)cc1 (stereo not drawn)	23%
COc1ccccc1C(=O)NC(CCSC)C(=O)N1CCN(C(C)=O)CC1 (stereo not drawn)	-0.345%

----------
Biological target: human ether-à-go-go-related gene (hERG) potassium channel (human, UniProt Q12809);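 further: peak tail current of the secondary pulse compared with the same well before compound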
Sequence (Q12809 whole entry, looked up): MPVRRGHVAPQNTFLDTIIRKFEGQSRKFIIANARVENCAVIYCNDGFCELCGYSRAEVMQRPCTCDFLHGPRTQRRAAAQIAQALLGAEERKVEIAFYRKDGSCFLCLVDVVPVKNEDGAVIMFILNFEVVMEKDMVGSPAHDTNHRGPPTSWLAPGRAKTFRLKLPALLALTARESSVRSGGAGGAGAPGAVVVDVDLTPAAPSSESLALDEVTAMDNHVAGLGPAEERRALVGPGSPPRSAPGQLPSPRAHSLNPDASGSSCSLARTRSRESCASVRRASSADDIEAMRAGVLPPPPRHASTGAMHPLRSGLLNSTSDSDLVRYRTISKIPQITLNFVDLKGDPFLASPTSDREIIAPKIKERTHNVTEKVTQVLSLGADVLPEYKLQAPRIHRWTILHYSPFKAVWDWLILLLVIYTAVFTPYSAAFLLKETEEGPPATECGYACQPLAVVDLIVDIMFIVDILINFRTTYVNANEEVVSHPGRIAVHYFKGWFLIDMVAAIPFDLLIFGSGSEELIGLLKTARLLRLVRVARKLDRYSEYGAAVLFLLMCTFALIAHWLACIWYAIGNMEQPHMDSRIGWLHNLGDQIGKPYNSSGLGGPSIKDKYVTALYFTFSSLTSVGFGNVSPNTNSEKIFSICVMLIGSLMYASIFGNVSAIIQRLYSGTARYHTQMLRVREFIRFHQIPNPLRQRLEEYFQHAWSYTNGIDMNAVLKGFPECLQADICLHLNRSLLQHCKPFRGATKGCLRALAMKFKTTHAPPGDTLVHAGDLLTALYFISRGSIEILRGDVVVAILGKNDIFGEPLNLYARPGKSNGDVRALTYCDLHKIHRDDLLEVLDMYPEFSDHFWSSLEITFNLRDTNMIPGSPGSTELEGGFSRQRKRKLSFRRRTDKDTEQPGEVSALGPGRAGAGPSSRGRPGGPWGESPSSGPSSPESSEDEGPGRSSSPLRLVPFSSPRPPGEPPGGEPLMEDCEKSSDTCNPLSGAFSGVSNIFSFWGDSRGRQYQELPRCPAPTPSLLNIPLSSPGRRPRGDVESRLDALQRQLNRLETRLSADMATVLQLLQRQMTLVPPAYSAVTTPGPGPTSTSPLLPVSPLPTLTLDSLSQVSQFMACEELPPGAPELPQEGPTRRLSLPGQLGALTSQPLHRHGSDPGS
Experiment: primary screen, population patch clamp on CHO cells stably expressing hERG; higher = less effect of the substance
In all, about 310,000 compounds went through this assay and about 14,000 (4.5%) showed an effect of 50% or more. Effects have a minus sign here. What follows is part of a selection rich in strong results, with near analogues and random picks from the rest.
endpoint_name: hERG current change (%, negative = inhibition) at 10uM (%)

compound	observed
COc1ccccc1C(CNC(=O)C(C)(C)Oc1ccc(Cl)cc1)N1CCCC1 (stereo not drawn)	-45.1
CCN(CC)S(=O)(=O)c1cccc(-c2cn3cc(C)ccc3n2)c1	-9.87
COc1ccc(NC2SC(=O)N(C)C2=O)cc1 (stereo not drawn)	1.36
CC(C)(Oc1ccc(Cl)cc1)C(=O)NCC(c1ccco1)N1CCCCC1 (stereo not drawn)	-20.2
O=C(Nc1cccc(Cl)c1)C1CCN(C(=O)c2cccs2)CC1	-16.8
CCN(C(=O)COC(=O)c1cc(Cl)ccc1OC)c1c(N)n(Cc2ccccc2)c(=O)[nH]c1=O	4.46
COc1ccc(C(CNC(=O)C(C)(C)Oc2ccc(Cl)cc2)N2CCCCC2)cc1 (stereo not drawn)	-53.8
COc1cccc(-c2cccc(NC(=O)C3CCN(CC4CCOC4)CC3)c2)c1 (stereo not drawn)	-53.2
COCCCNC(=O)c1ccc2c(=O)n(Cc3ccccc3OC)c(=S)[nH]c2c1	6.43
COc1ccc(C(CNC(=O)C(C)(C)Oc2ccc(Cl)cc2)N2CCCC2)cc1 (stereo not drawn)	-50.1
CCOc1cccc(OCCOCCN(C)C)c1.O=C(O)C(=O)O	0.719
CCOC(=O)CN1C(=O)/C(=C/c2ccc(Cl)cc2)Oc2ccccc21	2.31
Cc1cccc(-c2ccc(NC(=O)C3CCN(CC4CC4)CC3)cc2)c1	-70.9
COc1cccc(NC(=O)C2CC2)c1	2.97
Fc1ccc(-c2cc(C(F)(F)F)nc(NCc3cccs3)n2)cc1	14.4
COc1ccc(C(CNC(=O)Cc2ccccc2Cl)N2CCCCC2)cc1 (stereo not drawn)	23
Cc1cc(C)cc(N(CCC#N)C(=O)COC(=O)CCc2c[nH]c3ccccc23)c1	-32.6
Cc1nc2cc(NC(=O)c3ccc(Br)s3)ccc2s1	20
Cc1ccc2nc(CSc3nnc(Nc4ccccc4C)s3)cc(=O)n2c1	-43
COc1cccc(NC(=O)C2CCN(S(C)(=O)=O)CC2)c1	-7.92
CCN(CC)CCCn1c2c(c(SCC(=O)Nc3nc4ccccc4s3)nc1=O)CCC2	-71.2
